target: T1, HLA-DR1 (DRB1*0101) (human); assay: competition vs 125I probe peptide, purified HLA-DR, gel filtration
T1 chain 1: not shown
T1 chain 2: not shown
Recorded binding affinity ratio (IC50 standard peptide / IC50 test peptide) for the following binders

Study these solved cases before continuing.
Value of measured binding affinity ratio (IC50 standard peptide / IC50 test peptide) for the entry IDTLTCGFADLMGYI (modifications not checked) [HCV peptide … (HCV Core 123)] : 0.0017

Value of measured binding affinity ratio (IC50 standard peptide / IC50 test peptide) for the entry PQTFQVAHLHAPTGS (modifications not checked) [HCV peptide … (HCV NS3 1225)] : 0.24

Value of measured binding affinity ratio (IC50 standard peptide / IC50 test peptide) for the entry ARLIVFPDLGVRVCE (modifications not checked) [HCV peptide … (HCV NS5 2610)] : 0.0053

Next:
Value of measured binding affinity ratio (IC50 standard peptide / IC50 test peptide) for the entry GTVLDQAETAGARLV (modifications not checked) [HCV peptide … (HCV NS3 1335)] : 0.0001

Value of measured binding affinity ratio (IC50 standard peptide / IC50 test peptide) for the entry FPDLGVRVCEKMALY (modifications not checked) [HCV peptide … (HCV NS5 2615)] : 0.0001

Value of measured binding affinity ratio (IC50 standard peptide / IC50 test peptide) for the entry LHGLSAFSLHSYSPG (modifications not checked) [HCV peptide … (HCV NS5 2919)] : 1.6

Value of measured binding affinity ratio (IC50 standard peptide / IC50 test peptide) for the entry RQEMGGNITRVESEN (modifications not checked) [HCV peptide … (HCV NS5 2243)] : 0.0001

Value of measured binding affinity ratio (IC50 standard peptide / IC50 test peptide) for the entry VVLLFLLLADARVCS (modifications not checked) [HCV peptide … (HCV NS1/E2 724)] : 0.024

Value of measured binding affinity ratio (IC50 standard peptide / IC50 test peptide) for the entry ASQLSAPSLKATCTT (modifications not checked) [HCV peptide … (HCV NS5 2208)] : 0.015
